Values from patent US6784201B2

tested_target: human IBAT (Homo sapiens, UniProt Q12908)
Construct: expressed in transfected cells; host or cells: Baby hamster kidney (BHK) cells, clone H14
Sequence (Q12908 whole entry): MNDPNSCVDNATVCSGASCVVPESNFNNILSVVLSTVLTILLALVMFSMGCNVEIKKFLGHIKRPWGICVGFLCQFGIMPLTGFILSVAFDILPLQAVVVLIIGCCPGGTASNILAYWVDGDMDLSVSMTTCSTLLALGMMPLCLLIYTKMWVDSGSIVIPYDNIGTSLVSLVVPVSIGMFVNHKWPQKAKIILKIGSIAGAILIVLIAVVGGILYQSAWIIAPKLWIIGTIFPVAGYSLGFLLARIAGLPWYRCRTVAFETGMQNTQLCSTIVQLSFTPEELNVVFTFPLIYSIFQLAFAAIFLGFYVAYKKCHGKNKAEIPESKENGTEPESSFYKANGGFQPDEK
assay_procedure: In vitro assay of IBAT-mediated uptake of [14C]-taurocholate (TC) in H14 cells
Format: cell-based
condition: read-out: Human TC IC50
Listing: IC50 of selected compounds
quantity_measured: IC50 (nM)

compound | measurement
CCCCC1(CCCC)CS(=O)(=O)c2ccc(N(C)C)cc2C(c2ccc(OCCOCCOCCOCCCl)c(F)c2)C1O (centres unmarked) [Example 1242] | 29
CCCCC1(CCCC)CS(=O)(=O)c2ccc(N(C)C)cc2C(c2cccc(OCCOCCOCC[n+]3ccc(C(=O)O)cc3)c2)C1O (centres unmarked) [Example 1028] | 2
CCCCC1(CCCC)CS(=O)(=O)c2ccc(N(C)C)cc2C(c2cccc(OCCOCCOCC[N+](CC)(CC)CCN(C)S(=O)(=O)c3ccccc3)c2)C1O (centres unmarked) [Example 1080] | 5
CCCCC1(CCCC)CS(=O)(=O)c2ccc(N(C)C)cc2C(c2ccc(O)c(CN(C)C)c2)C1O (centres unmarked) [Example 1248] | 330
CCCCCCOc1ccc2c(c1)C(c1ccccc1)C(O)C(CC)(CCCC)CS2(=O)=O (centres unmarked) [Example 1315] | 1670
CCCCC1(CC)CS(=O)(=O)c2ccc(N(C)C)cc2C(c2ccc(OC)c(F)c2)C1O (single isomer, unassigned) [Example 1213] | 1700
CCCCC1(CCCC)CS(=O)(=O)c2c(cccc2N(C)C)C(c2ccc(F)cc2)C1O (centres unmarked) [Example 1129] | 18
CCCCC1(CCCC)CS(=O)(=O)c2c(NCC)cccc2C(c2ccc(F)cc2)C1O (centres unmarked) [Example 1284] | 11
CCCCC1(CC)CS(=O)(=O)c2ccc(N(C)C)cc2C(c2ccc(O)c(F)c2)C1O (centres unmarked) [Example 1118] | 10
CCCCC1(CC)CS(=O)(=O)c2ccc(SC)cc2C(c2cccc(OC)c2)C1O (single isomer, unassigned) [Example 142] | 500
CCCCC1(CCCC)CS(=O)(=O)c2ccc(N(C)C)cc2C(c2ccc(OCCOCC[n+]3ccn(CC)c3)c(F)c2)C1O (centres unmarked) [Example 1070] | 4
CCCCC1(CCCC)CS(=O)(=O)c2ccc(N)cc2[C@@H](c2ccccc2)[C@H]1O [Example 290] | 54
CCCCC1(CCCC)CS(=O)(=O)c2c(cc(N(C)C)cc2N(C)C)C(c2ccccc2)C1O (centres unmarked) [Example 1069] | 4
CCCCC1(CCCC)CS(=O)(=O)c2c(OC)cc(N(C)C)cc2C(c2ccc(OC)cc2)C1O (centres unmarked) [Example 1014] | 2
CCCCC1(CCCC)CS(=O)(=O)c2ccc(N(C)C)cc2C(c2ccc(OCCCCCCCCCCI)cc2)C1O (centres unmarked) [Example 1269] | 26
CCCCC1(CC)CS(=O)(=O)c2ccc(OC)cc2C(c2cccc(OC)c2)C1O (single isomer, unassigned) [Example 263] | 700
CCCCC1(CCCC)CS(=O)(=O)c2ccc(N(C)C)cc2C(c2ccc(OCc3ccncc3)c(F)c2)C1O (centres unmarked) [Example 1113] | 9
CCCCC1(CC)CS(=O)(=O)c2ccc(-c3ccccc3)cc2C(c2cccc(OC)c2)C1O (centres unmarked) [Example 1174] | 150
CCCCC1(CCCC)CS(=O)(=O)c2ccc(N(C)C)cc2C(c2ccc(OCCOCC[N+](CC)(CC)CCN(CC)CC)c(F)c2)C1O (centres unmarked) [Example 1122] | 11
CCCCC1(CCCC)CS(=O)(=O)c2ccc(N(C)C)cc2C(c2ccc(CO)cc2)C1O (centres unmarked) [Example 1283] | 170
CCCCC1(CCCC)CS(=O)(=O)c2ccc(N(C)C)cc2C(c2ccc(OCc3cccc(C[N+](CC)(CC)CC)n3)c(F)c2)C1O (centres unmarked) [Example 1020] | 2
CCCC1(CCC)CS(=O)(=O)c2ccc(N)cc2[C@@H](c2ccccc2)[C@H]1O [Example 289] | 230
CCCCCC(=O)Nc1ccc2c(c1)C(c1ccccc1)C(O)C(CC)(CCCC)CS2(=O)=O (centres unmarked) [Example 108] | 300
CCCCC1(CCCC)CS(=O)(=O)c2ccc(N(C)C)cc2C(c2ccc(OCC[N+](C)(C)CCOCCOCC[N+](C)(C)C)cc2)C1O (centres unmarked) [Example 1237] | 70
CCCCC1(CCCC)CS(=O)(=O)c2ccc(N(C)C)cc2C(c2cccc(OCCOCCOCC[n+]3ccc(C)c4ccccc43)c2)C1O (centres unmarked) [Example 1017] | 2
CCCCC1(CC)CS(=O)(=O)c2ccc(N(C)C)cc2C(c2cccc(O)c2)C1O (centres unmarked) [Example 1260] | 12
CCCCC1(CCCC)CS(=O)(=O)c2ccc([N+](C)(C)C)cc2C(c2ccccc2)C1O (centres unmarked) [Example 1180] | 200
CCCCC1(CCCC)CS(=O)(=O)c2ccc(OC)cc2C(c2ccncc2)C1O (centres unmarked) [Example 1172] | 140
C=CCOc1ccc(C2c3cc(N(C)C)ccc3S(=O)(=O)CC(CCCC)(CCCC)C2O)cc1Cl (centres unmarked) [Example 1167] | 120
